- measured-target: Human CD137 ECD (human)
- Sequence (chain, as listed by the source limits assumed): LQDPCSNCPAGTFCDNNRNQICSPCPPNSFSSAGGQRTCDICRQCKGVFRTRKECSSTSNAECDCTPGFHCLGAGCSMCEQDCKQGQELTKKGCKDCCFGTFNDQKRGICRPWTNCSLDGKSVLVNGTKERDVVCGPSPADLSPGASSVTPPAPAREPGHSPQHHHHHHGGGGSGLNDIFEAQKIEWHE
- test-summary: single mutant vs template dBBDu183H
Reported fold change of affinity values for the following binders.
measurement-label: fold change of affinity (fold)

[
  {
    "binder": "H183/L072 VH D101P (antibody, name in Kabat numbering, V domains shown) VH: QVQLVESGGGLVQPGRSLRLSCAASGFTFSNAWMHWVRQAPGKGLEWVAQIKDKGNAYAAYYAPSVKGRFTISRDDSKNSIYLQMNSLKTEDTAVYYCHYVHYASASTVLPAFGVPAWGQGTTVTVSS VL: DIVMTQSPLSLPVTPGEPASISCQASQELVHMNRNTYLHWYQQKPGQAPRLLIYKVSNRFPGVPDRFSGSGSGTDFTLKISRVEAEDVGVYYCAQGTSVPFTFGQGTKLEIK",
    "assay-value": 0
  },
  {
    "binder": "H183/L072 VH D52aW (antibody, name in Kabat numbering, V domains shown) VH: QVQLVESGGGLVQPGRSLRLSCAASGFTFSNAWMHWVRQAPGKGLEWVAQIKWKGNAYAAYYAPSVKGRFTISRDDSKNSIYLQMNSLKTEDTAVYYCHYVHYASASTVLPAFGVDAWGQGTTVTVSS VL: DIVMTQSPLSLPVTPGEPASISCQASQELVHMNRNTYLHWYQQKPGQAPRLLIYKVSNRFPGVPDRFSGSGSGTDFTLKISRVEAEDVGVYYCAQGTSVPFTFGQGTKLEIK",
    "assay-value": 0
  },
  {
    "binder": "H183/L072 VH D52aA (antibody, name in Kabat numbering, V domains shown) VH: QVQLVESGGGLVQPGRSLRLSCAASGFTFSNAWMHWVRQAPGKGLEWVAQIKAKGNAYAAYYAPSVKGRFTISRDDSKNSIYLQMNSLKTEDTAVYYCHYVHYASASTVLPAFGVDAWGQGTTVTVSS VL: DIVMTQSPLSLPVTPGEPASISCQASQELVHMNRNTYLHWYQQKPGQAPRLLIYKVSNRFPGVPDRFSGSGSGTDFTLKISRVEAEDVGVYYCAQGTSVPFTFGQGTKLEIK",
    "assay-value": 0
  }
]
